test system: SNB-19; test: NCI panel growth inhibition, sulforhodamine B; assay type: cell-based; conditions: Homo sapiens; SNB-19, CNS cancer; drug for last 48 h of 72 h
pIC50: −log10 of the molar value.
The threshold is inclusive: pIC50 of exactly 5 counts as yes (1); values below receive no (0).

# Smiles Structure, Class
data = [
    ("Nc1ccc(C2(c3ccc(N)cc3)C3CC4CC(C3)CC2C4)cc1", "no (0)"),
    ("Nc1ccc(Oc2ccc(C34CC5CC(C3)CC(c3ccc(Oc6ccc(N)cc6C(F)(F)F)cc3)(C5)C4)cc2)c(C(F)(F)F)c1", "no (0)"),
    ("Nc1ccc(C23CC4CC(C2)CC(c2ccc(N)cc2)(C4)C3)cc1", "no (0)"),
    ("Nc1ccc(Oc2ccc(C34CC5CC(C3)CC(c3ccc(Oc6ccc(N)c(O)c6)cc3)(C5)C4)cc2)cc1O", "yes (1)"),
    ("Nc1ccc(Oc2ccc(C3(c4ccc(Oc5ccc(N)c(O)c5)cc4)C4CC5CC(C4)CC3C5)cc2)cc1O", "yes (1)"),
]
